assaySystem: T1, human CD3 expressed on cells (Jurkat, a CD3+ human T-cell line; human T cells) (human, UniProt P07766 23-126; P04234 22-100)
T1 chain 1: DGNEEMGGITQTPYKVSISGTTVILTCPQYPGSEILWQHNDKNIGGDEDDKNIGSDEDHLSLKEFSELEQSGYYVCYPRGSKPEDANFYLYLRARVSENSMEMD
T1 chain 2: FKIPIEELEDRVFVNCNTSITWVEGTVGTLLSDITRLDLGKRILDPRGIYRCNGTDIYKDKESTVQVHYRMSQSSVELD
experiment: cell-based or functional assay
assayReadout: U937 Cytotoxicity Human T-cells [M] (EC50) (M)
// return numeric value only (unit: M, not printed)

1) H1H5793B (antibody, human IgG1, V domains shown) VH: QVQLVQSGTEVKKPGASMKVSCKASGYTFTGYYIHWVRQAPGQGLEWMGWINPNSDVTKYAQKFQGRVTLTRDTSISAAYIDLSRLRSDDTAIYYCARMGDGAVFDYWGQGTLVTVSS VL: DIQLTQSPSSLSASVGDRVTITCRASQRISSYLNWYQQKPGKAPKVLISVASSLQSGVPSRFSGSGFGTDFTLTISSLQPEDSASYYCQQSYNTPLTFGGGTKLEIKR ... 8.85e-11

For the binder H1H5798B (antibody, human IgG1, V domains shown) VH: QVQLVQSGGGLVKPGGSLRLSCAASGFTFSSYDMSWVRQAPGKGLEWVSYISSSGNTIHYADSVKGRFTISRDNSKNSLYLQMNSLRAEDTAVYYCAKAGPATVTRRYYYYYGLDVWGQGTTVTVSS VL: DIVMTQSPSSLSASVRDRVTITCRASQRISSYLNWFQQKPGKAPKVLIYTASSLQNGVPSRFSGSGSGTDFTLTISSLQPEDFATYYCQQSYRTPLTFGGGTKVEIKR , give its measured U937 Cytotoxicity Human T-cells [M] (EC50) value.
1.81e-10
